Origin of the recorded values: ChEMBL document CHEMBL1147862

The molecules listed here are annotated with their zone of inhibition at 30 µg/mL.
# System: Escherichia coli
# measurement_description: Antibacterial activity against Escherichia coli at 30 ug/ml by agar plate diffusion technique
# Format: functional
# applied_conditions: read-out: IZ
property: zone of inhibition at 30 µg/mL (mm)

>  <molecule>
COc1ccc2[nH]c(C)c(Cc3nn4c(Cc5ccc(OC)c(OC)c5)nnc4s3)c2c1

>  <test_result>
12.4

$$$$
>  <molecule>
COc1ccc2[nH]cc(Cc3nn4c(-c5ccoc5C)nnc4s3)c2c1

>  <test_result>
14.2

$$$$
>  <molecule>
COc1ccc(Cl)c(-c2nnc3sc(Cc4c(C)[nH]c5ccc(OC)cc45)nn23)c1

>  <test_result>
12.3

$$$$
>  <molecule>
COc1ccc(Cc2nnc3sc(-c4cc(-c5ccccc5)nc5ccccc45)nn23)cc1OC

>  <test_result>
16.9

$$$$
>  <molecule>
COc1ccc(Cl)c(-c2nnc3sc(-c4cc(O)nc(O)c4)nn23)c1

>  <test_result>
13.2

$$$$
>  <molecule>
COc1ccc(Cl)c(-c2nnc3sc(-c4ccnc5ccccc45)nn23)c1

>  <test_result>
18.8

$$$$
>  <molecule>
COc1ccc(Cc2nnc3n2NC(c2ccc([N+](=O)[O-])o2)S3)cc1OC (configuration not stated)

>  <test_result>
15

$$$$
>  <molecule>
Cc1occc1-c1nnc2n1NC(c1ccc[nH]1)S2 (configuration not stated)

>  <test_result>
15.7

$$$$
>  <molecule>
COc1ccc(Cl)c(-c2nnc3n2NC(c2cccn2C)S3)c1 (configuration not stated)

>  <test_result>
10.1

$$$$
>  <molecule>
Cc1occc1-c1nnc2sc(-c3cc(-c4ccccc4)nc4ccccc34)nn12

>  <test_result>
17.4

$$$$
>  <molecule>
COc1ccc(Cl)c(-c2nnc3sc(-c4cc(C)nc5ccccc45)nn23)c1

>  <test_result>
16.7

$$$$
>  <molecule>
COc1ccc(Cl)c(-c2nnc3sc(-c4cc(-c5ccccc5)nc5ccccc45)nn23)c1

>  <test_result>
16.5

$$$$
>  <molecule>
COc1ccc(Cc2nnc3n2NC(c2cccn2C)S3)cc1OC (configuration not stated)

>  <test_result>
10.2

$$$$
>  <molecule>
Cc1occc1-c1nnc(S)n1N

>  <test_result>
12.8

$$$$
>  <molecule>
COc1ccc(Cc2nnc3sc(-c4ccnc(F)c4)nn23)cc1OC

>  <test_result>
19.3

$$$$
>  <molecule>
O=C(N[C@H](CO)[C@H](O)c1ccc([N+](=O)[O-])cc1)C(Cl)Cl [CHLORAMPHENICOL]

>  <test_result>
23.7

$$$$
>  <molecule>
Cc1occc1-c1nnc2n1NC(c1ccc([N+](=O)[O-])o1)S2 (configuration not stated)

>  <test_result>
16.9

$$$$

====

Below: a set of entries, each annotated with reported zone of inhibition at 30 µg/mL.
# Test system: Aspergillus niger
# measurement_description: Antifungal activity against Aspergillus niger at 30 ug/ml by paper disc method
# Assay type: functional
# applied_conditions: read-out: IZ

>  <compound>
COc1ccc(Cl)c(-c2nnc3sc(Cc4c[nH]c5ccccc45)nn23)c1

>  <result_unit>
mm

>  <zone of inhibition at 30 µg/mL>
12.9

$$$$
>  <compound>
Cc1occc1-c1nnc2sc(-c3ccnc(Cl)c3)nn12

>  <result_unit>
mm

>  <zone of inhibition at 30 µg/mL>
20.7

$$$$
>  <compound>
COc1ccc(Cl)c(-c2nnc3n2NC(c2cccn2C)S3)c1 (centres undefined)

>  <result_unit>
mm

>  <zone of inhibition at 30 µg/mL>
12.9

$$$$
>  <compound>
COc1ccc(Cl)c(-c2nnc3n2NC(c2ccc[nH]2)S3)c1 (centres undefined)

>  <result_unit>
mm

>  <zone of inhibition at 30 µg/mL>
12.3

$$$$
